# assay-protocol: qHTS of pediatric cancer cell lines to identify multiple opportunities for drug repurposing: Primary screen for BT-12 cells (AID 1347101); further: nearly all actives have a fitted effect of over 25% in size
# recorded-conditions: BT-12 viability, CellTiter-Glo luminescence, 48 h; series mostly up to 57.3 µM
# Description: Drug repurposing or repositioning has been offered as a strategy for drug development in oncology programs. […] [1] Shen, M et al. Quantitative high-throughput phenotypic screening of pediatric cancer cell lines identifies multiple opportunities for drug repurposing. […] Cells were assayed in growth media at a density of 500-1,000 cells/well. […] After a 15 min incubation at room temperature, samples were analyzed for luminescence intensity using a ViewLux High-throughput CCD imager equipped with clear filters.
Inconclusive results are not listed. The source made the active and inactive calls. The call rests on the fitted dose curve; in most records, active means well fitted cell-killing curve with a large enough effect; inconclusive means small, poorly fitted or top-dose-only effect; inactive means flat fitted curve, though single readings scatter.
Assign a class; possible classes are yes (1) for active, no (0) for inactive

molecule	assigned-class
Cc1ccc(S(=O)(=O)Nc2nc3ccccc3nc2Nc2ccc3nsnc3c2)cc1	yes (1)
CC[C@H]1OC(=O)[C@H](C)[C@@H](O[C@H]2C[C@@](C)(OC)[C@@H](O)[C@H](C)O2)[C@H](C)[C@@H](O[C@@H]2O[C@H](C)C[C@H](N(C)C)[C@H]2O)[C@](C)(O)C[C@H](C)C(=NOCOCCOC)[C@H](C)[C@@H](O)[C@]1(C)O	no (0)
O=C1C(CCC(O)c2ccc(F)cc2)C(c2ccc(O)cc2)N1c1ccc(F)cc1 (configuration not stated)	no (0)
O=C(O)CCC=CCC[C@@H]1[C@H](N2CCCCC2)[C@@H](O)C[C@@H]1OCc1ccc(-c2ccccc2)cc1	no (0)
Oc1cc(O)cc(C=Cc2ccc(O)c(O)c2)c1	yes (1)
CNC(=O)[C@H](CC1=CN=C2C=CCC=C12)NC(=O)[C@@H](CC(=O)NO)CC(C)C	yes (1)

// query What classification did CC(C)C[C@H](NC(=O)c1cc2ccccc2s1)C(=O)N1CCN(C(=O)[C@H](CO)NS(=O)(=O)c2ccc(Cl)cc2Cl)CC1 end up with in this test?
// result yes (1)
